test: chemical genetic growth profiling, strain panel (AID 1159580);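 note: tested at 20 µM; growth read once vehicle control cultures reached saturation at 30 °C; 1 = growth at the plate median or of vehicle wells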; conditions: S. cerevisiae deletion strains, growth OD, locus YAL026C, strain drs2, stronger effect = lower value
Hit rate of the full screen: of about 5,500 compounds, about 2,000 (36%) were called active. Not shown: some 18% with an inconclusive outcome. This is one part of the list.
Recorded normalized growth, one value per entry.
Provide a numeric answer; units are not to be included.

(Q) Quick one: normalized growth of COc1cc2c(cc1OC)-c1c(oc3cc(O)cc(O)c3c1=O)CO2 ?
(A) 1.01

(Q) So what's the measured normalized growth for this one? C[C@@H]1O[C@@H](O[C@H]2CC[C@]3(C=O)C4CC[C@]5(C)[C@@H](C6=CC(=O)OC6)CC[C@]5(O)C4CC[C@]3(O)C2)[C@H](O)[C@H](O)[C@H]1O (stereo not given in full)
(A) 0.997

###

experiment: chemical genetic growth profiling, strain panel (AID 1159580); settings: S. cerevisiae deletion strains, growth OD, locus YBR160W, strain CDC28
Screen size: about 5,500 compounds; about 2,000 (36%) were called active. About 18% were inconclusive and are not listed. Rule as the data show it: active = normalized growth mostly below about 0.91 (no sharp cut-off); inconclusive = no clear call, values can overlap the other calls; inactive = mostly above about 0.92. The list shows a part of the results.
Outcome field: choose from 1 (active), -1 (inactive)

>>> qualitative_label("O=C(NC(=S)NNc1ncc(C(F)(F)F)cc1Cl)c1cccs1")
1
>>> qualitative_label("N#Cc1ccc2[nH]cc(CCN(Cc3ccccc3)Cc3ccccc3)c2c1")
-1
>>> qualitative_label("C/C(=N/NC(N)=S)c1csc(-c2ccccc2)n1")
-1

(Q) For CC1(C)C=Cc2cc(/C(N)=N\OC(=O)Nc3cccc(C(F)(F)F)c3)ccc2O1 , what call appears in the results of this test?
(A) -1

(Q) For this compound, state the assay outcome: O=C(OCc1ccccc1Br)c1cc([N+](=O)[O-])cc([N+](=O)[O-])c1
(A) -1

(Q) Test call, this compound: COc1ccc(Br)c(C(=O)/C(C#N)=C/c2cccs2)c1
(A) -1

(Q) Which outcome was entered for the compound Cc1cc(Br)c(O)c(/C=N\NC(=S)NC(C)(C)C)c1 in this test?
(A) -1

###

assay: chemical genetic growth profiling, strain panel (AID 1159580); settings: S. cerevisiae deletion strains, growth OD, locus YJR075W, strain HOC1, stronger effect = lower value
The whole screen tested about 5,500 compounds, of which about 2,000 (36%) were called active. Inconclusive results (about 18%) are left out. Some of the results follow.
Overview of recorded normalized growth for various molecules
Give a plain numeric answer without units written out.

>>> assay_result("Cc1ccc(S(=O)(=O)N2CCC(N)=N2)cc1")
1.02
>>> assay_result("C/C=C(/C)C(=O)O[C@@H]1Cc2c(ccc3ccc(=O)oc23)OC1(C)C")
0.99
>>> assay_result("CC1CCCC(C)N1NC(=O)c1ccc(Cl)c(S(N)(=O)=O)c1 (stereo not given)")
0.985

(Q) Consider the molecule shown here: COc1cc(O)c2c(=O)cc(-c3ccc(O)cc3)oc2c1 What is its recorded normalized growth?
(A) 1

###

experiment: chemical genetic growth profiling, strain panel (AID 1159580); conditions: S. cerevisiae deletion strains, growth OD, locus YGR135W, strain pre9
About 2,000 (36%) of roughly 5,500 compounds were called active. Roughly 18% stayed inconclusive and do not appear here. No stated cut-off is given here; in the data, active means normalized growth mostly below about 0.91 (no sharp cut-off); inconclusive means no clear call, values can overlap the other calls; inactive means mostly above about 0.92. The list shows a part of the results.
Bench note: report the call from true (1) for active, false (0) for inactive

Past entries and their recorded results:
>>> qualitative_label("COc1cc(C(=O)N2CCOCC2)cc(OC)c1OC")
"true (1)"
>>> qualitative_label("CSc1nc(NC(C)C)nc(NC(C)C)n1")
"false (0)"
>>> qualitative_label("NC[C@H]1O[C@H](O[C@H]2[C@H](O)[C@@H](O[C@H]3O[C@H](CO)[C@@H](O)[C@H](N)[C@H]3O)[C@H](N)C[C@@H]2N)[C@H](N)[C@@H](O)[C@@H]1O")
"false (0)"

(Q) For COc1ccc(-c2cc(=O)c3c(O)cc(O)c(-c4cc(-c5cc(=O)c6c(O)cc(O)cc6o5)ccc4OC)c3o2)cc1 , which call appears in the assay record?
(A) false (0)

(Q) Record lookup: outcome of this test for COc1cc(O)c2c(=O)cc(-c3ccc(OC)c(-c4c(O)cc(O)c5c(=O)cc(-c6ccc(O)cc6)oc45)c3)oc2c1 ?
(A) false (0)

(Q) // param item: CC1=CC(=O)C(C(C)C)=CC1=O ; yields the recorded call
(A) true (1)

(Q) Kindly provide the recorded test outcome for the following compound: Oc1ccc2c3c1OC1[C@@H](O)CC[C@@]4(O)[C@@H](C2)N(CC2CCC2)CC[C@]314 (stereo partly drawn)
(A) false (0)

(Q) Entry CC1(C)S[C@@H]2C(N3C(=O)[C@@H](c4ccccc4)NC3(C)C)C(=O)N2[C@H]1C(=O)O (stereo partly drawn) : call = ?
(A) false (0)

(Q) Write down the call the test reported for this compound. Item: COc1cc(C)c2c(=O)c3c(O)cc(OC)cc3oc2c1
(A) false (0)

###

assay: chemical genetic growth profiling, strain panel (AID 1159580);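 note: tested at 20 µM; growth read once vehicle control cultures reached saturation at 30 °C; 1 = growth at the plate median or of vehicle wells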; conditions: S. cerevisiae deletion strains, growth OD, locus YNL153C, strain GIM3, stronger effect = lower value
In all, about 5,500 compounds went through this assay and about 2,000 (36%) were called active. Inconclusive results (about 18%) are left out. This is one part of the list.
# normalized growth per entry
Please reply with the number alone, leaving off any unit.

Previously resolved entries follow.
>>> assay_result("COc1ccc(OC)c(CNC(=O)Cc2cccs2)c1")
1.03
>>> assay_result("O=C(Nc1ccc(OC(F)(F)F)cc1)Nc1cccc(C(=O)O)c1")
0.988
>>> assay_result("Cn1c(=O)c2[nH]c(-c3ccc(S(=O)(=O)O)cc3)nc2n(C)c1=O")
1.03
>>> assay_result("COc1cccc2c1CCC1=CC(=O)CC[C@@]12C")
0.989
>>> assay_result("Cc1ccc(Cl)cc1NC(=S)N(CCC#N)/N=C\\c1ccc2c(c1)OCO2")
1.02

(Q) Could you tell me which normalized growth is on file for NC(=O)c1ccc([N+](=O)[O-])cc1Cl ?
(A) 0.964

(Q) Item COc1ccccc1N1CCN(CCN(C(=O)c2ccc(F)cc2)c2ccccn2)CC1 has what recorded normalized growth?
(A) 1.01

(Q) Return reported normalized growth; argument: C/C=C(/C)C(=O)O[C@@H]1Cc2c(ccc3ccc(=O)oc23)OC1(C)C
(A) 0.996

(Q) # query: normalized growth of entry CC1(C)C(O)CC(=O)C2(C)C1CC(O)C1(C)C2CCC2(C)C(c3ccoc3)OC(=O)C3OC321 (centres undefined)
(A) 1.03

###

assay: chemical genetic growth profiling, strain panel (AID 1159580);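 note: tested at 20 µM; growth read once vehicle control cultures reached saturation at 30 °C; 1 = growth at the plate median or of vehicle wells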; conditions: S. cerevisiae deletion strains, growth OD, locus YML124C, strain tub3
In all, about 5,500 compounds went through this assay and about 2,000 (36%) were called active. Roughly 18% stayed inconclusive and do not appear here. No stated cut-off is given here; in the data, active means normalized growth mostly below about 0.91 (no sharp cut-off); inconclusive means no clear call, values can overlap the other calls; inactive means mostly above about 0.92. Some of the results follow.
Would you mind answering with one of these outcomes? 1 (yes) (active), 0 (no) (inactive)

Solved entries:
>>> qualitative_label("CCCCCC(O)C1C(=O)OC(C)C(O)/C=C/C=C/C=C/C=C/C=C(\\C)C(O)CC(O)CC(O)CC(O)CC(O)CC(O)CC1O (stereo unspecified)")
"0 (no)"
>>> qualitative_label("CN(C)CC[C@H](c1ccc(Cl)cc1)c1ccccn1")
"0 (no)"
>>> qualitative_label("COc1c(O)cc2c(c1O)[C@H]1O[C@H](CO)[C@@H](O)[C@H](O)[C@@H]1OC2=O")
"0 (no)"

(Q) Just curious, what result did O=C(/C=C(\O)c1ccccc1)c1ccccc1O get here?
(A) 1 (yes)

(Q) Hi, do you know how O=C(CCCN1CCC2(CC1)C(=O)NCN2c1ccccc1)c1ccc(F)cc1 came out in this test?
(A) 0 (no)

(Q) Tell me the assay call for Cc1c(OCC(F)(F)F)ccnc1CS(=O)c1nc2ccccc2[nH]1 (stereo unspecified) please.
(A) 0 (no)

###

assay: chemical genetic growth profiling, strain panel (AID 1159580);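 note: tested at 20 µM; growth read once vehicle control cultures reached saturation at 30 °C; 1 = growth at the plate median or of vehicle wells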; settings: S. cerevisiae deletion strains, growth OD, locus YJL168C, strain set2, stronger effect = lower value
Out of some 5,500 compounds screened, about 2,000 (36%) were called active. About 18% were inconclusive and are not listed. The list shows a part of the results.
List of normalized growth values.
Would you mind answering with just the numeric figure?

As a guide, the following entries are already answered.
>>> assay_result("Cc1c(OCC(F)(F)F)ccnc1CS(=O)c1nc2ccccc2[nH]1 (configuration not stated)")
0.982
>>> assay_result("CC(=O)O[C@@H]1CC2C(C)(CC[C@H](O)C2(C)C)C2CC[C@]3(C)C(=CC(=O)O[C@H]3c3ccoc3)C21C (some centres not stated)")
0.994

(Q) # input compound: CN(C)CC[C@H](c1ccc(Cl)cc1)c1ccccn1 ; wanted: its normalized growth
(A) 0.993

(Q) Given the entry CCCc1nn(C)c2c(=O)[nH]c(-c3cc(S(=O)(=O)N4CCN(C)CC4)ccc3OCC)nc12 , report its measured normalized growth.
(A) 0.995

(Q) Looking for the measured normalized growth of CC(=O)Oc1ccccc1C(=O)Oc1ccccc1C(=O)O , can you help?
(A) 0.981

(Q) Which normalized growth is listed for O=C(CCCN1CCC(O)(c2ccc(Cl)cc2)CC1)c1ccc(F)cc1 ?
(A) 0.995

(Q) // returns reported normalized growth for input C[N+]1(C)C[C@H](O)[C@H](C(=O)[O-])C1
(A) 1

(Q) May I ask what normalized growth has been recorded for CO[C@@H]1[C@@H](OC(N)=O)[C@@H](O)[C@H](Oc2ccc3c(O)c(NC(=O)c4ccc(O)c(CC=C(C)C)c4)c(=O)oc3c2C)OC1(C)C ?
(A) 0.988
